test system: primary AML patient cells (S009); experiment: viability relative to DMSO control (fraction); higher = less drug effect (more viable cells); settings: 0.12 µM; 48 h
The entries below come with measured viability values attached.

A selection of reference data follows.
[
  {
    "item-smiles": "O=C(O)CSc1cc(NS(=O)(=O)c2ccc(Br)cc2)c2ccccc2c1O",
    "observed-measurement": 0.914
  },
  {
    "item-smiles": "N#CC[C@H](C1CCCC1)n1cc(-c2ncnc3[nH]ccc23)cn1",
    "observed-measurement": 1.01
  },
  {
    "item-smiles": "CS(=O)(=O)c1ccc(C(=O)Nc2ccc(Cl)c(-c3ccccn3)c2)c(Cl)c1",
    "observed-measurement": 0.918
  }
]

// query Name the recorded viability for Cc1cc(Nc2ncc(Cl)c(Nc3ccccc3S(=O)(=O)C(C)C)n2)c(OC(C)C)cc1C1CCNCC1 .
// result 0.903

// query # viability lookup, item CCc1nc(C(N)=O)c(Nc2ccc(N3CCC(N4CCN(C)CC4)CC3)c(OC)c2)nc1NC1CCOCC1
// result 0.865

====

tested on: primary CLL patient cells (S043); test: viability relative to DMSO control (fraction); higher = less drug effect (more viable cells); conditions: 0.2 µM; 48 h
The following molecules are shown together with reported viability values.
Just the number, please.

[
  {
    "item-smiles": "Nc1ccc2ncnc(NCCc3ccc(Oc4ccccc4)cc3)c2c1",
    "viability": 0.774
  },
  {
    "item-smiles": "Cc1nc(Nc2ncc(C(=O)Nc3c(C)cccc3Cl)s2)cc(N2CCN(CCO)CC2)n1",
    "viability": 0.595
  },
  {
    "item-smiles": "COc1cccc2c1C(=O)c1c(O)c3c(c(O)c1C2=O)C[C@@](O)(C(C)=O)C[C@@H]3O[C@H]1C[C@H](N)[C@H](O)[C@H](C)O1",
    "viability": 0.33
  }
]

In the following, a different molecule is considered.
// query Value lookup for viability; key = CC(C)C[C@H](NC(=O)CNC(=O)c1cc(Cl)ccc1Cl)B(O)O
// result 0.987

====

Parameter viability: see the listing below.
tested on: primary DLBCL patient cells (S076); assay: viability relative to DMSO control (fraction); higher = less drug effect (more viable cells); settings: 0.08 µM; 48 h
Answer field: number only, no words.

[
  {
    "compound": "CC(C)c1cc(-c2n[nH]c(=O)n2-c2ccc3c(ccn3C)c2)c(O)cc1O [Ganetespib]",
    "viability": 0.467
  },
  {
    "compound": "Nc1nc(F)nc2c1ncn2[C@@H]1O[C@H](CO)[C@@H](O)[C@@H]1O [Fludarabine]",
    "viability": 1.07
  },
  {
    "compound": "Cc1sc2c(c1C)C(c1ccc(Cl)cc1)=N[C@@H](CC(=O)Nc1ccc(O)cc1)c1nnc(C)n1-2 [OTX015]",
    "viability": 0.942
  }
]

// query I'd like to know its viability. The compound in question is CC[C@H](Nc1ncnc2[nH]cnc12)c1nc2cccc(F)c2c(=O)n1-c1ccccc1 [Idelalisib]
// result 0.825

====

Recorded viability values for a group of compounds are listed next.
test system: primary AML patient cells (S037); assay: viability relative to DMSO control (fraction); higher = less drug effect (more viable cells); settings: 0.6 µM; 48 h
Provide a numeric answer; units are not to be included.

Guide cases for viability, answers given:
[
  {
    "compound": "Nc1ncn([C@H]2C[C@H](O)[C@@H](CO)O2)c(=O)n1 [Decitabine (Dacogen)]",
    "tested-target": "primary AML patient cells (S037)",
    "observed-measurement": 0.981
  },
  {
    "compound": "CCN1CCN(Cc2ccc(Nc3ncc(F)c(-c4cc(F)c5nc(C)n(C(C)C)c5c4)n3)nc2)CC1",
    "tested-target": "primary AML patient cells (S037)",
    "observed-measurement": 1.03
  },
  {
    "compound": "N#CC[C@H](C1CCCC1)n1cc(-c2ncnc3[nH]ccc23)cn1 [Ruxolitinib]",
    "tested-target": "primary AML patient cells (S037)",
    "observed-measurement": 0.989
  },
  {
    "compound": "Nc1nc(Cl)nc2c1ncn2[C@@H]1O[C@H](CO)[C@@H](O)[C@@H]1F [Clofarabine]",
    "tested-target": "primary AML patient cells (S037)",
    "observed-measurement": 0.656
  }
]

// query Need viability, item C[C@@H](Oc1cc(-c2cnn(C3CCNCC3)c2)cnc1N)c1c(Cl)ccc(F)c1Cl [Crizotinib]
// result 1.01
